SYSTEM TESTED: T1, mouse IL-12Rβ2 expressed on cells (mouse, UniProt P97378 24-874)
T1 construct: HEK293T cells, stably transduced (cDNA NM_008354); also called mIL-12RB2
T1 sequence: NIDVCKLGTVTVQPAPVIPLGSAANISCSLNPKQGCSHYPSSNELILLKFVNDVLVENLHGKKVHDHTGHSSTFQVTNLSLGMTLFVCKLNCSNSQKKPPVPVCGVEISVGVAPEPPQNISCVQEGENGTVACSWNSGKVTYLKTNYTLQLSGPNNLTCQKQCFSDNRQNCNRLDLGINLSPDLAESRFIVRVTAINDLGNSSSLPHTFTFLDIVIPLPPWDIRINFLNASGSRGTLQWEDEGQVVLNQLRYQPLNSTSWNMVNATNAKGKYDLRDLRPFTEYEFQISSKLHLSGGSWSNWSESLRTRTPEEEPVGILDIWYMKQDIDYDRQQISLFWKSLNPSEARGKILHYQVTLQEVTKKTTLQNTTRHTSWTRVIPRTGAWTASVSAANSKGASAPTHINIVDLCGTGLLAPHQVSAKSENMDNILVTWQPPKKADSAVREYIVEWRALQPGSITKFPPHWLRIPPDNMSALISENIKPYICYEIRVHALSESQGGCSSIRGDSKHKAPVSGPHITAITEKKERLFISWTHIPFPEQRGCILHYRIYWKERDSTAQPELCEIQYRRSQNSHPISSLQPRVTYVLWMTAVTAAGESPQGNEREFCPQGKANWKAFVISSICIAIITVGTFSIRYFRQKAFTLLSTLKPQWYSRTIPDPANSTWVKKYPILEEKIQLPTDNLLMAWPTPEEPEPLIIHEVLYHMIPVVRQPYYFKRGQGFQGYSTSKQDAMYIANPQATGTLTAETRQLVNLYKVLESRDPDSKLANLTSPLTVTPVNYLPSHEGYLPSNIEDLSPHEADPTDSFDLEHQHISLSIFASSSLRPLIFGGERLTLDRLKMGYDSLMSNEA
METHOD NOTES: flow cytometry, P.E. VHH on HEK293T cells stably expressing mIL-12RB2
READOUT KIND: dMFI
// print number alone

Study these solved cases before continuing.
{"BINDER": "anti-IL-12Rβ2 VHH clone 3CAHM11 (VHH, not shown: small tags and cut ends, tested as periplasmic extract) VHH: QVQLQESGGGLVQAGGSLRLSCAASGRTFNNYAMAWFRQAPGKEREFIAAITRSDTTLYIDSVKGRFTISRDNAKNTVALQMNSLKPEDTAVYYCAAGMPYSYSDYPRDSKYDYWGRGTQVTVSS", "dMFI": 316}
{"BINDER": "anti-IL-12Rβ2 VHH clone 3CRHM12 (VHH, not shown: small tags and cut ends, tested as periplasmic extract) VHH: QVQLQESGGGSVQAGGSLRLSCAVSGRTVSDYAMGWFRQAPGKEREFVAAMSSSETTVYPNSVKGRITISRDNAKNAVYLQMNALKPEDTAVYYCSMGPIVTFQGLARQNEYHYWGQGTQVTVSS", "dMFI": 4.8}
{"BINDER": "anti-IL-12Rβ2 VHH clone 2CRM40 (VHH, not shown: small tags and cut ends, tested as periplasmic extract; also called 20448) VHH: QVQLQESGGGLVQTGGSLRLSCAASGRTYAMAWFRQAPGKEREFAAVIIGGDRTYYANSVKDRFTISRDNAKETVYLQMNNLKPEDTAVYYCAANRRLYNSGRGYSQSEYEYWGQGTQVTVSS", "dMFI": 166}
{"BINDER": "anti-IL-12Rβ2 VHH clone 3CRM95 (VHH, not shown: small tags and cut ends, tested as periplasmic extract; also called 20465) VHH: QVQLQESGGGLVQAGDFLRLSCVFSGGTFGDYSMGWFRQAPGKEREFVAAIRWSGDSTQYAEAVKGRFTISRDNAKSTVYLQMSSLKPEDTAVYYCAADPSYYIGPNHTPSRYRDWGQGTQVTVSS", "dMFI": 51}
{"BINDER": "anti-IL-12Rβ2 VHH clone 3CRHM14 (VHH, not shown: small tags and cut ends, tested as periplasmic extract) VHH: QVQLQESGGGLVQAGGSLRLSCAASGRTFSNYAMAWFRQAPGTEREFVAGLSGSGGDTEFYDDSVKGRFAISRDSAKNTVWLQMNSLKPEDTAVYYCAAATHVVVHYGLVRRRGTYDYWGQGTQVTVSS", "dMFI": 136}

Field request: dMFI | item: anti-IL-12Rβ2 VHH clone 2CRM42 (VHH, not shown: small tags and cut ends, tested as periplasmic extract; also called 20449) VHH: QVQLQESGGGLVQPGESLRLSCQASGRTFSNYRMGWFRQAPGKEREFVAGINWDGGHTYYTDSVKGRFTISRDNAKNTVYLQMNSLKPEDTAVYQCAVRVREYGSSRYEDQFDYWGQGTQVTVSS
22

So what's the measured dMFI for this one? anti-IL-12Rβ2 VHH clone 3CAM65 (VHH, not shown: small tags and cut ends, tested as periplasmic extract; also called 20513) VHH: QVQLQESGGGLVQAGGSLRLSCAPSGRTFTTYVMGWFRQAPGKEREFVAHISWSGGRTYYADSVKGRFTISRDNAKNTSYLQMNSLKPEDTAVYYCAAARSDAVRIGYAEGYEYWGQGTQVTVSS
315

Please give the measured dMFI for this binder: anti-IL-12Rβ2 VHH clone 2CAM88 (VHH, not shown: small tags and cut ends, tested as periplasmic extract) VHH: QVQLQESGGGLVPPGDSLRLSCAASGRTFSSYTMGWFRQAPGKEREFVARISQDGGSTYYADSMKGRFTVARDNAKNTVYLQMNSLKPEDTAVYYCAADMIKWGLRVGVDSFKYWGQGTQVTVSS
93
